assay: Mean rate constant for the hydrolysis of compound in buffers at pH 7.4, at 37 degrees Celsius in incubation mixture - d(G)-d(C) (1:1); assay type: ADME; details: buffer
OBSERVABLE: Mean rate constant (min⁻¹)
The reply should be a number in min⁻¹, with the unit left off.

Query: Reported Mean rate constant for NC(=O)c1ncn2c(=O)n(CCCl)nnc12 [MITOZOLOMIDE] : what is it?
Result: 0.0094

---

test: Half life for the hydrolysis of compound in buffers at pH 6.5, at 37 degrees Celsius in incubation mixture - d(A)-d(T) (10:1); assay type: ADME; conditions: buffer with d(A)-d(T) (10:1)
OBSERVABLE: half-life (min)
# unit: min | format: bare number

Query: Value lookup for half-life; key = NC(=O)c1ncn2c(=O)n(CCCl)nnc12 [MITOZOLOMIDE]
Result: 447

---

assay: Half life for the hydrolysis of compound in buffers at pH 7.4, at 37 degrees Centigrade in incubation mixture - 5'-GMP/5'-CMP (1:1); format: ADME; conditions: buffer with 5'-GMP/5'-CMP (1:1)
OBSERVABLE: half-life

Query: Please report the recorded half-life for NC(=O)c1ncn2c(=O)n(CCCl)nnc12 [MITOZOLOMIDE] .
Result: 1.18 h

---

Please respond with reported pIC50 for every item in the list.
system: TLX-5; test: In vitro cytotoxicity against mouse TLX5 lymphoma cells; type: functional, cell-based
pIC50 (log units): -log10 of the concentration in mol/L.

Query: pIC50 of `Nc1nc(O)cc(-c2ccc(NC(=O)c3ncn4c(=O)n(CCCl)nnc34)cc2)n1` on TLX-5?
Result: 4.60

Query: // lookup pIC50 | system=TLX-5 | key= `NC(=O)c1ccc(NC(=O)c2ncn3c(=O)n(CCCl)nnc23)c(C(N)=O)c1`
Result: 3.43

Query: Checklist item: pIC50 tested on TLX-5, entry `Cn1nnc2cc(C(N)=O)ccc2c1=O` , value?
Result: 3.42

Query: Find the measured pIC50: item `O=C(O)c1ncn2c(=O)n(CCCl)nnc12` , target or system TLX-5.
Result: 4.80

Query: Look up pIC50 with TLX-5 for this molecule: `CCn1nnc2cc(C(N)=O)ccc2c1=O`
Result: 3.97

Query: Form field: pIC50 recorded for `NC(=O)c1cccc2c(O)nnnc12` with TLX-5 (enter value)
Result: 3.40

---

assay: Half life for the hydrolysis of compound in buffers at pH 6.5, at 37 degrees Celsius in incubation mixture - d(G)-d(C) (10:1); format: ADME; settings: buffer with d(G)-d(C) (10:1)
OBSERVABLE: half-life

Query: Need half-life of NC(=O)c1ncn2c(=O)n(CCCl)nnc12 [MITOZOLOMIDE] , thanks.
Result: 7.5 h

---

system: TLX-5; assay: In vitro cytotoxicity against mouse TLX5 lymphoma cells; format: functional, cell-based
Assign pIC50 to each entry below.
When answering, recall that pIC50 equals minus log10 of the concentration in mol/L, and write that number alone.

Query: Which pIC50 value is on record for `O=C(Nc1ccccc1)c1ncn2c(=O)n(CCCl)nnc12` ?
Result: 5.90

Query: Which pIC50 is listed for `NC(=O)c1ccccc1NC(=O)c1ncn2c(=O)n(CCCl)nnc12` ?
Result: 4.89

Query: Name the recorded pIC50 for `NC(=O)c1cccc(NC(=O)c2ncn3c(=O)n(CCCl)nnc23)c1` .
Result: 4.46

Query: Fill blank: measured pIC50 of the molecule `NC(=O)c1ccc2c(=O)n(-c3ccccc3)nnc2c1` is ____.
Result: 3.85

Query: Looking for the measured pIC50 of `NC(=O)c1ccc(NC(=O)c2ncn3c(=O)n(CCCl)nnc23)cc1` , can you help?
Result: 4.43

Query: I have this molecule here, `NC(=O)c1cccc2c(=O)n(CCCl)nnc12` , and I need its recorded pIC50.
Result: 3.65

Query: Which value of pIC50 has been reported for NC(=O)c1ncn2c(=O)n(CCCl)nnc12 [MITOZOLOMIDE] in the records?
Result: 5.60

Query: Requested read-out: pIC50. Entry: `NC(=O)c1ccc2c(=O)n(CCCl)nnc2c1`
Result: 3.46

Query: Recorded pIC50 for `CCn1nnc2c(C(N)=O)cccc2c1=O` , please?
Result: 3.49

Query: Return reported pIC50; argument: Cn1nnc2c(C(N)=O)ncn2c1=O [TEMOZOLOMIDE]
Result: 5.30

---

assay: Half life for the hydrolysis of compound in buffers at pH 7.4, at 37 degrees Celsius in incubation mixture - d(A)-d(T) (1:1); type: ADME; details: buffer with d(A)-d(T) (1:1)
OBSERVABLE: half-life (h)
Form entry: value (h) — number only.

Query: So what's the measured half-life for this one? NC(=O)c1ncn2c(=O)n(CCCl)nnc12 [MITOZOLOMIDE]
Result: 1.26

---

assay: Half life for the hydrolysis of compound in buffers at pH 7.4, at 37 degrees Celsius in incubation mixture - d(A)-d(T) (10:1); details: buffer with d(A)-d(T) (10:1)
OBSERVABLE: half-life (h)
Dear colleague, please return just the value in h, with no unit written.

Query: Suppose we examine the molecule NC(=O)c1ncn2c(=O)n(CCCl)nnc12 [MITOZOLOMIDE] ; what half-life value has been reported?
Result: 1.24

---

assay: Half life for the hydrolysis of compound in buffers at pH 7.4, at 37 degrees Centigrade in incubation mixture - d(G)-d(C) (10:1); format: ADME; conditions: buffer with d(G)-d(C) (10:1)
OBSERVABLE: half-life (h)
Reply with just the number (in h).

Query: Given the molecule NC(=O)c1ncn2c(=O)n(CCCl)nnc12 [MITOZOLOMIDE] , what is its reported half-life?
Result: 1.27

---

assay: Mean rate constant for the hydrolysis of compound in buffers at pH 7.4, at 37 degrees Celsius in incubation mixture - d(A)-d(T) (1:1); assay type: ADME; settings: buffer
OBSERVABLE: Mean rate constant (min⁻¹)
The response must be a number in min⁻¹ with no trailing unit.

Query: Mean rate constant; subject: NC(=O)c1ncn2c(=O)n(CCCl)nnc12 [MITOZOLOMIDE]
Result: 0.00915

---

experiment: Mean rate constant for the hydrolysis of compound in buffers at pH 7.4, at 37 degrees Celsius in incubation mixture - 5'-GMP/5'-CMP (1:1); assay type: ADME; settings: buffer
OBSERVABLE: Mean rate constant (min⁻¹)
Could you give me the number in min⁻¹? Just the number is fine.

Query: Entry NC(=O)c1ncn2c(=O)n(CCCl)nnc12 [MITOZOLOMIDE] : reported Mean rate constant = ?
Result: 0.00979

Where these numbers come from: ChEMBL document CHEMBL1128310
